Data credit: PubChem BioAssay (EPA / NIEHS)

- Read-out: Matrix Metallopeptidase 1 (MMP1), MMP1 (gene 4312)
- EXPERIMENT_NOTES: BSK_hDFCGF_MMP1: BioMAP Diversity Plus: hDFCGF Assay for Matrix Metallopeptidase 1 (MMP1) Biomarker Activity (AID 2283064)
- STUDY_CONDITIONS: primary human foreskin fibroblasts; actives raise or lower the signal
Calls of active or inactive are those of the source. How the source made its calls: active means hit-call score of the fitted dose curve at least 0.9, where 1 is the maximum; inactive means score below 0.9.
Write down one outcome, taken from Y (active), N (inactive)

Solved entries (count: 6):
INSERT INTO measurements (compound, label_value) VALUES
  ('Nc1ccc(S(=O)(=O)c2ccc(N)cc2)cc1', 'N'),
  ('C[C@]12C=CC(=O)C=C1CC[C@@H]1[C@@H]2C(=O)C[C@@]2(C)[C@H]1CC[C@]2(O)C(=O)CO', 'N'),
  ('Cc1ccc(N(C)C)cc1', 'N'),
  ('COc1ccc2c(c1)c(CC(=O)O)c(C)n2C(=O)c1ccc(Cl)cc1', 'N'),
  ('C=CCc1ccc(O)c(OC)c1', 'N'),
  ('Cc1ccccc1Cl', 'N');

Record request — test call for `NCCO` N

Record request — test call for `COc1cc(-c2nc(NC(=O)c3cc4cc(C)cc(C)c4n3CC(=O)O)sc2CCC2CCCCC2)c(OC)cc1Cl` Y

Record request — test call for `C=CCOC(=O)c1ccccc1C(=O)OCC=C` N

Record request — test call for Cc1nc(-c2ccc3c(c2)CCN(CCC2CCC(NC(=O)/C=C/c4ccc(F)cc4)CC2)CC3)no1 (configuration not stated) N

Record request — test call for `Nc1ccccc1N` N

Record request — test call for `Nc1nc(N)c2nc(CNc3ccc(C(=O)N[C@@H](CCC(=O)O)C(=O)O)cc3)cnc2n1` N
